pIC50: −log10 of the molar value.
From various publications: pIC50 for Tyrosine-protein kinase JAK1 (Homo sapiens).

[[record]]
molecule = "Cn1cc(Nc2nc(-c3cnn(C4(CC#N)CC4)c3)c3sccc3n2)cn1"
assay_result = "6.30 to 7.30"

[[record]]
molecule = "Cn1cc(-c2cc3nccn3c(-c3cnn(C4(CCF)CN(C(=O)C5CC5)C4)c3)n2)cn1"
assay_result = "< 6.00"

[[record]]
molecule = "Cc1ccc(NC(=O)c2cccc(C(F)(F)F)c2F)cc1-c1ccc2c(c1)[nH]c1ncncc12"
assay_result = "≥ 6.30"

[[record]]
molecule = "CC1CCNC(=O)c2ccc(c([N+](=O)[O-])c2)-c2ccnc(n2)Nc2ccc(OCC3COC3)c(c2)COC1 (stereo not shown)"
assay_result = "5.00 to 6.00"

[[record]]
molecule = "COc1ccc(F)cc1COc1ccc2cc1COCCCCNC(=O)c1ccc(c(N)c1)-c1ccnc(n1)N2"
assay_result = "5.00 to 6.00"

[[record]]
molecule = "N#CCC1(n2cc(-c3ncnc4[nH]ccc34)cn2)CN(C2CCN(C(=O)c3ccc(-c4ccc(C#N)c(F)c4)c(F)c3)CC2)C1"
assay_result = "≥ 8.30"


Consider now this further molecule.
-- ask If you can, please state the reported pIC50 value of CN(c1ncnc2[nH]ccc12)C1CCC2(CC1)CCN(C(=O)COc1ccc(C#N)c(F)c1F)CC2 .
-- reply 7.00 to 8.00
